Exercise: state measured Population Pyknosed Nuclei (%) for each of the molecules provided.
test system: U2OS; test: Multiplex assay against U2OS; assay type: toxicity, cell-based; details: human, 48 h, 1 µM, compound concentration 1 uM, number of replicates 2
Numeric only. Scale: %

Item `CS(=O)(=O)c1ccc(C(=O)Nc2ccc(F)c(COc3ccc(Br)cc3CN3CC[C@H](O)C3)c2)c(Cl)c1.O=CO` ; assay system U2OS; Population Pyknosed Nuclei (%) reported as 9

Item `Cc1cc(-c2cnc(N)c3c(-c4ccc5scnc5c4)csc23)n(C)n1` ; assay system U2OS; Population Pyknosed Nuclei (%) reported as 7

Item CC(C)(C)c1cnc(CSc2cnc(NC(=O)C3CCN(CC(=O)NCCOCCOCCOCCNc4cccc5c4C(=O)N(C4CCC(=O)NC4=O)C5=O)CC3)s2)o1 (centres undefined) ; assay system U2OS; Population Pyknosed Nuclei (%) reported as 9

Item `CS(=O)(=O)c1ccc(C(=O)Nc2cccc(COc3ccc(Br)cc3CNCCO)c2)c(Cl)c1.O=CO` ; assay system U2OS; Population Pyknosed Nuclei (%) reported as 9

###

test system: Fibroblast; assay: Multiplex assay against human fibroblast; format: toxicity, cell-based; settings: 24 h, 1 µM, compound concentration 1 uM, number of replicates 2
readout-type: Population Mitochondria Different-Phenotype (%)
Numeric only. Scale: %

Population Mitochondria Different-Phenotype (%) reading for `N[C@@H]1c2cccnc2[C@H](OC(=O)N2CCC(n3c(=O)[nH]c4ncccc43)CC2)CC[C@H]1c1cccc(F)c1F` : 0

Population Mitochondria Different-Phenotype (%) reading for Br.Oc1cc2c(cc1O)C(c1ccccc1)CNCC2 (centres undefined) : 0

Population Mitochondria Different-Phenotype (%) reading for `Fc1cccc(-n2cnc3c(NCc4nc5ccc(F)c(F)c5[nH]4)nc(N4CCOCC4)nc32)c1` : 0

Population Mitochondria Different-Phenotype (%) reading for `COC(=O)c1ccc2c(c1)NC(=O)/C2=C(\Nc1ccc(-c2nccn2C)cc1)c1ccccc1` : 0

###

Exercise: state measured Population Fragmented Nuclei (%) for each of the compounds provided.
test system: HEK-293T; assay: Multiplex assay against HEK293T; type: toxicity, cell-based; conditions: human, 48 h, 10 µM, compound concentration 10 uM, number of replicates 2
Numeric only. Scale: %

Population Fragmented Nuclei (%) reading for `N[C@@H]1c2cccnc2[C@H](OC(=O)N2CCC(n3c(=O)[nH]c4ncccc43)CC2)CC[C@H]1c1cccc(F)c1F` : 14

Population Fragmented Nuclei (%) reading for `Cc1cc(-c2cnc(N)c3c(-c4ccc5scnc5c4)csc23)n(C)n1` : 9

Population Fragmented Nuclei (%) reading for `CN(C)C/C=C/C(=O)Nc1cccc(S(=O)(=O)N2CCC(NC(=O)c3n[nH]cc3NC(=O)c3c(Cl)cc(Cl)cc3Cl)CC2)c1` : 6

Population Fragmented Nuclei (%) reading for `Cn1c(Nc2c(Cl)cccc2Cl)nc2ccc3nc[nH]c(=O)c3c21` : 4

Population Fragmented Nuclei (%) reading for `CCc1ncnc(N2CCN(C(C)=O)CC2)c1C#Cc1ccc(N)nc1.Cl.Cl` : 7

###

Exercise: state measured Population Mitochondria Different-Phenotype (%) for each of the molecules provided.
tested on: Fibroblast; assay: Multiplex assay against human fibroblast; type: toxicity, cell-based; conditions: 48 h, 1 µM, compound concentration 1 uM, number of replicates 2
Numeric only. Scale: %

Population Mitochondria Different-Phenotype (%) reading for `COC(=O)c1ccc2c(c1)NC(=O)/C2=C(\Nc1ccc(-c2nccn2C)cc1)c1ccccc1` : 0

Population Mitochondria Different-Phenotype (%) reading for Br.Oc1cc2c(cc1O)C(c1ccccc1)CNCC2 (configuration not stated) : 0

Population Mitochondria Different-Phenotype (%) reading for `Cn1cc(-c2ccc(N(C(=O)NCc3ccccc3)[C@H]3CC[C@H](Nc4ccc(C#N)cn4)CC3)cc2)ccc1=O` : 0

Population Mitochondria Different-Phenotype (%) reading for `Fc1cccc(-n2cnc3c(NCc4nc5ccc(F)c(F)c5[nH]4)nc(N4CCOCC4)nc32)c1` : 2

Population Mitochondria Different-Phenotype (%) reading for `COc1cc(N2CCN(C)CC2)ccc1Nc1ncc2c(n1)N(C)c1ccccc1C(=O)N2CC(F)(F)F` : 1

Population Mitochondria Different-Phenotype (%) reading for `Cn1c(Nc2c(Cl)cccc2Cl)nc2ccc3nc[nH]c(=O)c3c21` : 2

Population Mitochondria Different-Phenotype (%) reading for `CN1CCN(C(=O)Cc2ccc(N/C(=C3\C(=O)Nc4cc(Cl)ccc43)c3ccccc3)cc2)CC1` : 0

Population Mitochondria Different-Phenotype (%) reading for `N[C@@H]1c2cccnc2[C@H](OC(=O)N2CCC(n3c(=O)[nH]c4ncccc43)CC2)CC[C@H]1c1cccc(F)c1F` : 1

Population Mitochondria Different-Phenotype (%) reading for `COc1cc(OC)cc(-c2cc3cnc(N)nc3nc2NC(=O)NC(C)(C)C)c1` : 0

Population Mitochondria Different-Phenotype (%) reading for `COc1c(OCCCN2CCOCC2)ccc2c1N=C(NC(=O)c1cnc(N)nc1)N1CCN=C21` : 0

Population Mitochondria Different-Phenotype (%) reading for `CCc1ncnc(N2CCN(C(C)=O)CC2)c1C#Cc1ccc(N)nc1.Cl.Cl` : 0

Population Mitochondria Different-Phenotype (%) reading for `O=C1CCCN1CCNc1nc(Nc2ccc(Cl)c(Cl)c2)ncc1C(F)(F)F` : 0

###

Exercise: state measured Population Membrane Permeable-Phenotype (%) for each of the compounds provided.
test system: U2OS; experiment: Multiplex assay against U2OS; assay type: toxicity, cell-based; details: human, 24 h, 10 µM, compound concentration 10 uM, number of replicates 2
Numeric only. Scale: %

Item CN(C)CCCN1c2ccccc2Sc2ccc(Cl)cc21.Cl [CHLORPROMAZINE HYDROCHLORIDE] ; assay system U2OS; Population Membrane Permeable-Phenotype (%) reported as 3

Item `Cn1c(Nc2c(Cl)cccc2Cl)nc2ccc3nc[nH]c(=O)c3c21` ; assay system U2OS; Population Membrane Permeable-Phenotype (%) reported as 2

Item `O=C1CCCN1CCNc1nc(Nc2ccc(Cl)c(Cl)c2)ncc1C(F)(F)F` ; assay system U2OS; Population Membrane Permeable-Phenotype (%) reported as 3

###

Exercise: state measured Population Hoechst High Intensity Objects (%) for each of the compounds provided.
test system: U2OS; assay: Multiplex assay against U2OS; assay type: toxicity, cell-based; conditions: human, 24 h, 1 µM, compound concentration 1 uM, number of replicates 2
Numeric only. Scale: %

Population Hoechst High Intensity Objects (%) reading for `COc1c(OCCCN2CCOCC2)ccc2c1N=C(NC(=O)c1cnc(N)nc1)N1CCN=C21` : 0

Population Hoechst High Intensity Objects (%) reading for `Cc1cc(-c2cnc(N)c3c(-c4ccc5scnc5c4)csc23)n(C)n1` : 0

Population Hoechst High Intensity Objects (%) reading for `CCc1ncnc(N2CCN(C(C)=O)CC2)c1C#Cc1ccc(N)nc1.Cl.Cl` : 0

Population Hoechst High Intensity Objects (%) reading for `COc1cc(N2CCN(C)CC2)ccc1Nc1ncc2c(n1)N(C)c1ccccc1C(=O)N2CC(F)(F)F` : 0

Population Hoechst High Intensity Objects (%) reading for CCC(=O)O[C@@H](OP(=O)(CCCCc1ccccc1)CC(=O)N1C[C@H](C2CCCCC2)C[C@H]1C(=O)[O-])C(C)C.[Na+] (stereo partly drawn) : 0

Population Hoechst High Intensity Objects (%) reading for `CN(C)C/C=C/C(=O)Nc1cccc(S(=O)(=O)N2CCC(NC(=O)c3n[nH]cc3NC(=O)c3c(Cl)cc(Cl)cc3Cl)CC2)c1` : 0

Population Hoechst High Intensity Objects (%) reading for `COC(=O)c1ccc2c(c1)NC(=O)/C2=C(\Nc1ccc(-c2nccn2C)cc1)c1ccccc1` : 0

Population Hoechst High Intensity Objects (%) reading for CC(C)(C)c1cnc(CSc2cnc(NC(=O)C3CCN(CC(=O)NCCOCCOCCOCCNc4cccc5c4C(=O)N(C4CCC(=O)NC4=O)C5=O)CC3)s2)o1 (stereo not drawn) : 0

###

Exercise: state measured Population Hoechst High Intensity Objects (%) for each of the compounds provided.
tested on: HEK-293T; experiment: Multiplex assay against HEK293T; format: toxicity, cell-based; settings: human, 12 h, 1 µM, compound concentration 1 uM, number of replicates 2
Numeric only. Scale: %

Population Hoechst High Intensity Objects (%) reading for `COC(=O)c1ccc2c(c1)NC(=O)/C2=C(\Nc1ccc(-c2nccn2C)cc1)c1ccccc1` : 4

Population Hoechst High Intensity Objects (%) reading for `CN(C)C/C=C/C(=O)Nc1cccc(S(=O)(=O)N2CCC(NC(=O)c3n[nH]cc3NC(=O)c3c(Cl)cc(Cl)cc3Cl)CC2)c1` : 10

Population Hoechst High Intensity Objects (%) reading for `Cn1cc(-c2ccc(N(C(=O)NCc3ccccc3)[C@H]3CC[C@H](Nc4ccc(C#N)cn4)CC3)cc2)ccc1=O` : 5

Population Hoechst High Intensity Objects (%) reading for `O=C1CCCN1CCNc1nc(Nc2ccc(Cl)c(Cl)c2)ncc1C(F)(F)F` : 9

Population Hoechst High Intensity Objects (%) reading for `CN1CCN(C(=O)Cc2ccc(N/C(=C3\C(=O)Nc4cc(Cl)ccc43)c3ccccc3)cc2)CC1` : 5

Population Hoechst High Intensity Objects (%) reading for CC(C)(C)c1cnc(CSc2cnc(NC(=O)C3CCN(CC(=O)NCCOCCOCCOCCNc4cccc5c4C(=O)N(C4CCC(=O)NC4=O)C5=O)CC3)s2)o1 (configuration not stated) : 15

Population Hoechst High Intensity Objects (%) reading for `CC(=O)N(CCN(C)C)c1ccc(N/C(=C2\C(=O)Nc3cc(Cl)ccc32)c2ccccc2)cn1` : 5
